Molecular target: Adenylate cyclase (Rattus norvegicus) (UniProt D4A3N4+P26770+Q04400+P26769+Q03343+P40146+Q8CFM9+P21932)
Assay: Maximum stimulation of adenylate cyclase.
Type: protein assay
Peptide text beside a SMILES is read from it.
Each record here notes measured Max stimulation.
Response body: numeric value in %, unit text excluded.

INSERT INTO results (molecule, units_of_measure, reported_result) VALUES
  ('CC(=O)N[C@@H](Cc1ccccc1)C(=O)N[C@@H](CS)C(=O)N[C@@H](CO)C(=O)N[C@@H](CC(=O)O)C(=O)N[C@@H](Cc1ccc(O)cc1)C(=O)N[C@@H](CO)C(=O)N[C@@H](CS)C(=O)N[C@@H](Cc1ccc(O)cc1)C(=O)N[C@@H](CC(C)C)C(=O)N[C@@H](CC(=O)O)C(N)=O (Ac-FCSDYSCYLD-NH2)', '%', 0);

Okay, next one:
Please give the measured Max stimulation for this molecule: CC(=O)N[C@@H](Cc1ccccc1)C(=O)N[C@H]1CSSC[C@@H](C(=O)N[C@@H](Cc2ccc(O)cc2)C(=O)N[C@@H](CC(C)C)C(=O)N[C@@H](CC(=O)O)C(N)=O)NC(=O)[C@H](CO)NC(=O)[C@H](Cc2ccc(O)cc2)NC(=O)[C@H](CC(=O)O)NC(=O)[C@H](CO)NC1=O (HELM PEPTIDE1{[ac].F.C.S.D.Y.S.C.Y.L.D.[am]}$PEPTIDE1,PEPTIDE1,3:R3-8:R3$$$V2.0) 0
